- Experimental Target: T1, BANP BEN S310A (human, UniProt Q8N9N5 205-325, S310A)
- T1 sequence: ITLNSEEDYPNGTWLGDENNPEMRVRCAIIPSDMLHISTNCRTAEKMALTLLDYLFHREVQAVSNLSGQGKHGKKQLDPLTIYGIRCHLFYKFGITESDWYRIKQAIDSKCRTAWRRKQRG
- Protocol Description: ITC; ITC: 20 mM Tris pH 7.5, 200 mM NaCl, 2 mM beta-mercaptoethanol, 20 C; EMSA: 20 mM Tris pH 7.0, 200 mM NaCl, 2 mM DTT, 4 C, 1.2% agarose in TAE
- Measurement Setup: protein: recombinant; tags: His-SUMO or His-MBP, cleaved; chain copies: 2; blunt, self-complementary
Measured Property: Kd (µM)
Return type: number; implicit unit µM.

Input 12-CGCG (dsDNA) DNA 1: ATCTCGCGAGAT DNA 2: ATCTCGCGAGAT . Output Kd: 12.8
